System: HeLa
Test: MTS assay, cervical adenocarcinoma HeLa
Type: cell-based
Details: Homo sapiens, 72 h, read-out: IC50 HeLa
pIC50: −log10 of the molar value.
pIC50 values for the compounds below.

STRUCTURE NOTATION	STUDY SYSTEM	pIC50
COc1cccc(-c2nc(C)c(C(=O)Nc3ccccc3)s2)c1	HeLa	< 3.52
COc1cccc(-c2nc(C)c(C(=O)Nc3ccc(C(C)(C)C)cc3)s2)c1	HeLa	< 3.52
COc1cccc(-c2nc(C)c(C(=O)Nc3cc(OC)ccc3OC)s2)c1	HeLa	3.60
COc1cccc(-c2nc(C)c(C(=O)Nc3ccc(Oc4ccccc4OC)cc3)s2)c1	HeLa	< 3.52
COc1cccc(-c2nc(C)c(C(=O)Nc3ccc(OC)c(OC)c3)s2)c1	HeLa	< 3.52
COc1cc(NC(=O)c2sc(-c3cccc(OC)c3)nc2C)cc(OC)c1	HeLa	< 3.52
COc1cccc(-c2nc(C)c(C(=O)Nc3cccc(C(F)(F)F)c3)s2)c1	HeLa	< 3.52
COc1cccc(-c2nc(C)c(C(=O)Nc3cc(OC)c(OC)c(OC)c3)s2)c1	HeLa	< 3.52
COc1cccc(-c2nc(C)c(C(=O)Nc3ccc(SC)cc3)s2)c1	HeLa	3.65

* * *

Below is a list of entries, each paired with its recorded pIC50 value.
Tested on: HepG2
Experiment: MTS assay, hepatocellular carcinoma HepG2
Format: cell-based
Conditions: Homo sapiens, HepG2, 72 h, read-out: IC50 HepG2
pIC50: −log10 of the molar value.

COMPOUND	STUDY SYSTEM	pIC50
COc1cccc(-c2nc(C)c(C(=O)Nc3cc(OC)c(OC)c(OC)c3)s2)c1 [2a]	HepG2	4.22
COc1cccc(-c2nc(C)c(C(=O)Nc3cc(OC)ccc3OC)s2)c1 [2h]	HepG2	< 3.52
COc1cccc(-c2nc(C)c(C(=O)Nc3ccc(C(C)(C)C)cc3)s2)c1 [2b]	HepG2	< 3.52
COc1cccc(-c2nc(C)c(C(=O)Nc3ccc(OC)c(OC)c3)s2)c1 [2c]	HepG2	< 3.52
COc1cccc(-c2nc(C)c(C(=O)Nc3ccccc3)s2)c1 [2f]	HepG2	< 3.52
COc1cccc(-c2nc(C)c(C(=O)Nc3cccc(C(F)(F)F)c3)s2)c1 [2j]	HepG2	< 3.52
COc1cccc(-c2nc(C)c(C(=O)Nc3ccc(Oc4ccccc4OC)cc3)s2)c1 [2i]	HepG2	< 3.52
COc1cc(NC(=O)c2sc(-c3cccc(OC)c3)nc2C)cc(OC)c1 [2d]	HepG2	< 3.52
COc1cccc(-c2nc(C)c(C(=O)Nc3ccc(SC)cc3)s2)c1 [2e]	HepG2	< 3.52

* * *

SI (selectivity index / selectivity ratio) reference
Target: human recombinant COX-2 (Homo sapiens)
Sequence (P35354 18-604): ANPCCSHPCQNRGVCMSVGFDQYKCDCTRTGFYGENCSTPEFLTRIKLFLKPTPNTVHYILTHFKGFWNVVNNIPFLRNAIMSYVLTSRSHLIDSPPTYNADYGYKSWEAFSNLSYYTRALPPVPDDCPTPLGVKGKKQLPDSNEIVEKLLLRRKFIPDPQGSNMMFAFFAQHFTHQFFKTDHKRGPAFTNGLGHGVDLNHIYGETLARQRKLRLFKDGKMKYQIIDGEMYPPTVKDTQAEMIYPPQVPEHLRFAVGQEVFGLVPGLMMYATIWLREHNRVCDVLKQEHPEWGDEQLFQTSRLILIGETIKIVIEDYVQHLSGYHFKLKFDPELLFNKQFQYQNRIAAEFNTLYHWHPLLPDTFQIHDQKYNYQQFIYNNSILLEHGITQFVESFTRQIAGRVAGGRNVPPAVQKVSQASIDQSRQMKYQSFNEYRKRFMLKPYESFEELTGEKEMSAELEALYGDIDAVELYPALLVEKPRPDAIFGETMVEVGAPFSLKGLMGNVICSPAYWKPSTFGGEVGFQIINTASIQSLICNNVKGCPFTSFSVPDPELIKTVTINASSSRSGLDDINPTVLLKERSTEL
Assay: In vitro COX-2 inhibition assay
Format: biochemical
Conditions: IC50 COX-1 divided by IC50 COX-2
PROPERTY LABEL: SI (selectivity index / selectivity ratio)

COMPOUND	READOUT VALUE
COc1cccc(-c2nc(C)c(C(=O)Nc3cc(OC)ccc3OC)s2)c1 [2h]	0.272
COc1cccc(-c2nc(C)c(C(=O)Nc3cccc(C(F)(F)F)c3)s2)c1 [2j]	1.507
COc1cccc(-c2nc(C)c(C(=O)Nc3ccc(C(C)(C)C)cc3)s2)c1 [2b]	1.251
COc1cccc(-c2nc(C)c(C(=O)Nc3ccccc3)s2)c1 [2f]	0.630
COc1cccc(-c2nc(C)c(C(=O)Nc3ccc(SC)cc3)s2)c1 [2e]	0.723
COc1cc(NC(=O)c2sc(-c3cccc(OC)c3)nc2C)cc(OC)c1 [2d]	0.685
COc1cccc(-c2nc(C)c(C(=O)Nc3ccc(Oc4ccccc4OC)cc3)s2)c1 [2i]	0.651
COc1cccc(-c2nc(C)c(C(=O)Nc3ccc(OC)c(OC)c3)s2)c1 [2c]	0.095

* * *

System: Hek293t cells
Test: MTS cytotoxicity assay, normal cell line Hek293t
Format: cell-based
Details: read-out: CC50 Hek293t, 72 h

COMPOUND	UNIT STRING	CC50
COc1cccc(-c2nc(C)c(C(=O)Nc3ccc(C(C)(C)C)cc3)s2)c1	µM	117
O=c1[nH]cc(F)c(=O)[nH]1 [5-FU, reference compound]	µM	4.06

* * *

Biological target: human recombinant COX-2 (Homo sapiens)
Assay: In vitro COX-2 inhibition assay
Conditions: IC50 COX-2
pIC50: −log10 of the molar value.

STRUCTURE NOTATION	pIC50
COc1cccc(-c2nc(C)c(C(=O)Nc3cc(OC)ccc3OC)s2)c1	5.91
COc1cc(NC(=O)c2sc(-c3cccc(OC)c3)nc2C)cc(OC)c1	5.64
COc1cccc(-c2nc(C)c(C(=O)Nc3ccc(SC)cc3)s2)c1	5.67
COc1cccc(-c2nc(C)c(C(=O)Nc3ccccc3)s2)c1	5.49
COc1cccc(-c2nc(C)c(C(=O)Nc3ccc(OC)c(OC)c3)s2)c1	5.54
COc1cccc(-c2nc(C)c(C(=O)Nc3ccc(Oc4ccccc4OC)cc3)s2)c1	5.49
COc1cccc(-c2nc(C)c(C(=O)Nc3cccc(C(F)(F)F)c3)s2)c1	6.02

* * *

Listed below: IC50 values for each entry.
Tested on: B16F1
Assay: MTS assay, melanoma B16F1
Format: cell-based
Details: Mus musculus, B16-F1, 72 h, read-out: IC50 B16F1

STRUCTURE NOTATION	IC50
COc1cccc(-c2nc(C)c(C(=O)Nc3ccc(C(C)(C)C)cc3)s2)c1	74.2 µM
COc1cccc(-c2nc(C)c(C(=O)Nc3ccc(OC)c(OC)c3)s2)c1	> 300 µM
COc1cccc(-c2nc(C)c(C(=O)Nc3ccccc3)s2)c1	> 300 µM
COc1cccc(-c2nc(C)c(C(=O)Nc3ccc(SC)cc3)s2)c1	> 300 µM

* * *

Reported pIC50 for target or system COX-1 (Ovis aries, UniProt P05979), by entry.
pIC50: −log10 of the molar value.
PROPERTY LABEL: pIC50

STRUCTURE NOTATION	STUDY SYSTEM	READOUT VALUE
COc1cccc(-c2nc(C)c(C(=O)Nc3ccccc3)s2)c1	COX-1 (Ovis aries, UniProt P05979)	5.69
COc1cccc(-c2nc(C)c(C(=O)Nc3cc(OC)ccc3OC)s2)c1	COX-1 (Ovis aries, UniProt P05979)	6.47
COc1cccc(-c2nc(C)c(C(=O)Nc3ccc(SC)cc3)s2)c1	COX-1 (Ovis aries, UniProt P05979)	5.82
COc1cccc(-c2nc(C)c(C(=O)Nc3cccc(C(F)(F)F)c3)s2)c1	COX-1 (Ovis aries, UniProt P05979)	5.84
COc1cccc(-c2nc(C)c(C(=O)Nc3cc(OC)c(OC)c(OC)c3)s2)c1	COX-1 (Ovis aries, UniProt P05979)	5.58
COc1cccc(-c2nc(C)c(C(=O)Nc3ccc(Oc4ccccc4OC)cc3)s2)c1	COX-1 (Ovis aries, UniProt P05979)	5.68
COc1cccc(-c2nc(C)c(C(=O)Nc3ccc(OC)c(OC)c3)s2)c1	COX-1 (Ovis aries, UniProt P05979)	6.56
COc1cccc(-c2nc(C)c(C(=O)Nc3ccc(C(C)(C)C)cc3)s2)c1	COX-1 (Ovis aries, UniProt P05979)	6.62
COc1cc(NC(=O)c2sc(-c3cccc(OC)c3)nc2C)cc(OC)c1	COX-1 (Ovis aries, UniProt P05979)	5.80
